Hey, just so you know, these numbers are from paper PMC9571628.

assay info: Pharmacokinetic interaction study between SOR and DAPA in rats (oral gavage, plasma by UPLC-MS/MS)
settings: male, Sprague-Dawley, rat, in vivo, po, 1 mg/kg, AUC0–∞, DAPA 1 mg/kg oral, alone, n = 6
property label: AUC(0-inf) (ng·h/mL)
State just the number; it will be interpreted in ng·h/mL.

Query block: Report AUC(0-inf), nothing else, for this compound: CCOc1ccc(Cc2cc([C@@H]3O[C@H](CO)[C@@H](O)[C@H](O)[C@H]3O)ccc2Cl)cc1 [DAPA, Dapagliflozin]
Result block: 5180

---

assay info: Pharmacokinetic interaction study between SOR and DAPA in rats (oral gavage, plasma by UPLC-MS/MS)
settings: male, Sprague-Dawley, rat, in vivo, po, 1 mg/kg, Tmax, DAPA 1 mg/kg oral, alone, n = 6
property label: Tmax (min)
State just the number; it will be interpreted in min.

Query block: Report Tmax, nothing else, for this compound: CCOc1ccc(Cc2cc([C@@H]3O[C@H](CO)[C@@H](O)[C@H](O)[C@H]3O)ccc2Cl)cc1 [DAPA, Dapagliflozin]
Result block: 34.8

---

assay info: Pharmacokinetic interaction study between SOR and DAPA in rats (oral gavage, plasma by UPLC-MS/MS)
settings: male, Sprague-Dawley, rat, in vivo, po, 1 mg/kg, AUC0-t, DAPA 1 mg/kg oral with multiple-doses SOR (100 mg/kg, seven days), n = 6
property label: AUC(0-t) (ng·h/mL)
State just the number; it will be interpreted in ng·h/mL.

Query block: Report AUC(0-t), nothing else, for this molecule: CCOc1ccc(Cc2cc([C@@H]3O[C@H](CO)[C@@H](O)[C@H](O)[C@H]3O)ccc2Cl)cc1
Result block: 8570

---

assay info: Pharmacokinetic interaction study between SOR and DAPA in rats (oral gavage, plasma by UPLC-MS/MS)
settings: male, Sprague-Dawley, rat, plasma, po, 100 mg/kg, AUC0–∞, SOR 100 mg/kg oral, alone, n = 6
property label: AUC(0-inf) (ng·h/mL)
State just the number; it will be interpreted in ng·h/mL.

Query block: Report AUC(0-inf), nothing else, for this molecule: CNC(=O)c1cc(Oc2ccc(NC(=O)Nc3ccc(Cl)c(C(F)(F)F)c3)cc2)ccn1
Result block: 63700

---

assay info: Pharmacokinetic interaction study between SOR and DAPA in rats (oral gavage, plasma by UPLC-MS/MS)
settings: male, Sprague-Dawley, rat, in vivo, po, 1 mg/kg, Cmax, DAPA 1 mg/kg oral with multiple-doses SOR (100 mg/kg, seven days), n = 6
property label: Cmax (ng/mL)
State just the number; it will be interpreted in ng/mL.

Query block: Report Cmax, nothing else, for this molecule: CCOc1ccc(Cc2cc([C@@H]3O[C@H](CO)[C@@H](O)[C@H](O)[C@H]3O)ccc2Cl)cc1
Result block: 871

---

assay info: Pharmacokinetic interaction study between SOR and DAPA in rats (oral gavage, plasma by UPLC-MS/MS)
settings: male, Sprague-Dawley, rat, in vivo, po, 1 mg/kg, Vz/F, DAPA 1 mg/kg oral, alone, n = 6
property label: Vd/F (L/kg)
State just the number; it will be interpreted in L/kg.

Query block: Report Vd/F, nothing else, for this molecule: CCOc1ccc(Cc2cc([C@@H]3O[C@H](CO)[C@@H](O)[C@H](O)[C@H]3O)ccc2Cl)cc1
Result block: 1.27

---

assay info: Pharmacokinetic interaction study between SOR and DAPA in rats (oral gavage, plasma by UPLC-MS/MS)
settings: male, Sprague-Dawley, rat, in vivo, po, 1 mg/kg, MRT0-t, DAPA 1 mg/kg oral, alone, n = 6
property label: MRT last (h)
State just the number; it will be interpreted in h.

Query block: Report MRT last, nothing else, for this compound: CCOc1ccc(Cc2cc([C@@H]3O[C@H](CO)[C@@H](O)[C@H](O)[C@H]3O)ccc2Cl)cc1
Result block: 6.1

---

assay info: Pharmacokinetic interaction study between SOR and DAPA in rats (oral gavage, plasma by UPLC-MS/MS)
settings: male, Sprague-Dawley, rat, in vivo, po, 1 mg/kg, CLz/F, DAPA 1 mg/kg oral with multiple-doses SOR (100 mg/kg, seven days), n = 6
property label: CL/F (mL/min/kg)
State just the number; it will be interpreted in mL/min/kg.

Query block: Report CL/F, nothing else, for this compound: CCOc1ccc(Cc2cc([C@@H]3O[C@H](CO)[C@@H](O)[C@H](O)[C@H]3O)ccc2Cl)cc1
Result block: 2

---

assay info: Pharmacokinetic interaction study between SOR and DAPA in rats (oral gavage, plasma by UPLC-MS/MS)
settings: male, Sprague-Dawley, rat, in vivo, po, 1 mg/kg, MRT0–∞, DAPA 1 mg/kg oral, alone, n = 6
property label: MRT inf (h)
State just the number; it will be interpreted in h.

Query block: Report MRT inf, nothing else, for this compound: CCOc1ccc(Cc2cc([C@@H]3O[C@H](CO)[C@@H](O)[C@H](O)[C@H]3O)ccc2Cl)cc1 [DAPA, Dapagliflozin]
Result block: 6.25

---

assay info: Pharmacokinetic interaction study between SOR and DAPA in rats (oral gavage, plasma by UPLC-MS/MS)
settings: male, Sprague-Dawley, rat, plasma, po, 100 mg/kg, Vz/F, SOR 100 mg/kg oral, alone, n = 6
property label: Vd/F (L/kg)
State just the number; it will be interpreted in L/kg.

Query block: Report Vd/F, nothing else, for this compound: CNC(=O)c1cc(Oc2ccc(NC(=O)Nc3ccc(Cl)c(C(F)(F)F)c3)cc2)ccn1
Result block: 37.4

---

assay info: Pharmacokinetic interaction study between SOR and DAPA in rats (oral gavage, plasma by UPLC-MS/MS);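 further: parameters derived by non-compartmental analysis of plasma concentration–time data, with analyte levels measured by UPLC-MS/MS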
settings: male, Sprague-Dawley, rat, in vivo, po, 1 mg/kg, MRT0-t, DAPA 1 mg/kg oral with multiple-doses SOR (100 mg/kg, seven days), n = 6
property label: MRT last (h)
State just the number; it will be interpreted in h.

Query block: Report MRT last, nothing else, for this compound: CCOc1ccc(Cc2cc([C@@H]3O[C@H](CO)[C@@H](O)[C@H](O)[C@H]3O)ccc2Cl)cc1
Result block: 9.01
